Huh-7 cells: reported CC50 for various compounds.
Where a name gives a salt, the structure may show the parent alone.
Numbers only here, please. The scale is µM.

compound: CC(=O)c1ccc2c(c1)N(CCCN1CCN(CCO)CC1)c1ccccc1S2 [Acetophenazine maleate]
observation.type: CC50
number: 23.6

Record COc1ccc2c(c1)N(C[C@H](C)CN(C)C)c1ccccc1S2 [Methotrimeprazine maleate salt] / Huh-7 cells, CC50 recorded as 24.5

----------
Test: in vitro
Conditions: human
Where a name gives a salt, the structure may show the parent alone.
observation.type: CC50

Recorded results for 3 compounds are shown here.
compound: OCCOCCN1CCN(C(c2ccccc2)c2ccc(Cl)cc2)CC1 (stereo not shown) [Hydroxyzine pamoate]
CC50: > 50 µM
//
compound: O=C(Nc1ccncc1)c1cc([N+](=O)[O-])ccc1Cl [N1-(4-pyridyl)-2-chloro-5-nitrobenzamide]
CC50: > 50 µM
//
compound: COc1ccc(C2=N[C@@H](c3ccc(Cl)cc3)[C@@H](c3ccc(Cl)cc3)N2C(=O)N2CCNC(=O)C2)c(OC(C)C)c1 [Nutlin-3]
CC50: 26.8 µM

The compound listed as CCN(CCO)CCCC(C)Nc1ccnc2cc(Cl)ccc12 (stereo not shown) [Hydroxychloroquine sulfate] has a reported CC50 of > 50 µM

The compound listed as CN(C)CC/C=C1\c2ccccc2CSc2ccccc21 [Dosulepin hydrochloride] has a reported CC50 of 28.9 µM

The compound listed as CN1CCN(c2nc(C3=C(c4c[nH]c5ccccc45)C(=O)NC3=O)c3ccccc3n2)CC1 [Sotrastaurin] has a reported CC50 of > 50 µM

The compound listed as CCN(CC)CCCC(C)Nc1ccnc2cc(Cl)ccc12 (stereo not shown) [Chloroquine diphosphate] has a reported CC50 of > 50 µM

----------
Assay: in vitro
Conditions: cat
observation.type: CC50

The molecule listed as "CN1CCN(CCOc2cc(OC3CCOCC3)c3c(Nc4c(Cl)ccc5c4OCO5)ncnc3c2)CC1" has a reported CC50 of > 50 µM
